B1: TPR t1 (parent)
chain: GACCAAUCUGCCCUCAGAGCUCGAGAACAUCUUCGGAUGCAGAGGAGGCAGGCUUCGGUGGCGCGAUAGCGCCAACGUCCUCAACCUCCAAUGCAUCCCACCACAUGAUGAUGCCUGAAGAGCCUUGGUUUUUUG

- Variants of: B1
- experimental protocol: polymerase ribozyme fitness, log enrichment relative to wild type (log ratio); higher = more active; in vitro selection for triplet polymerase activity
Provide the reported polymerase ribozyme fitness (log ratio) of each item.
One number for each entry.

Take a look at these entries with their results.
{"mutant label": "A100C G110C", "result": -4.94}
{"mutant label": "G47U G48A G52U", "result": -2.97}
{"mutant label": "U21G A46C C49G", "result": -3.41}
{"mutant label": "A84U U112C", "result": 1.2}
{"mutant label": "A50U A111G U125A", "result": -2.24}
{"mutant label": "A46C C49U A111U U133G", "result": -5.19}
{"mutant label": "G69C G122U U130C", "result": -1.15}
{"mutant label": "C8U C12A A84C U116C", "result": 0.149}
{"mutant label": "U32A C40U U106A", "result": -6.43}
{"mutant label": "U81G G122U C123G U129A", "result": -4.51}

Hey, can you go through the list below and give me polymerase ribozyme fitness (log ratio) for every item?
1. U14G G120C
2. G63U C123A

1. 0.117
2. -0.845

Quick request: polymerase ribozyme fitness (log ratio) for each listed item, please.
1. G69A C85A
2. A6U C98U U112G
3. G52A C76U
4. A6C C11A
5. G10A A29C G39A G69U
6. C3A G45U G57U C82U C104A C123A
7. C8A U30G C115U U130G
8. C80U C115G

1: -4.3; 2: -3.5; 3: -0.303; 4: -2.65; 5: -2.05; 6: -4.01; 7: -5.92; 8: -0.729

Items follow; give polymerase ribozyme fitness (log ratio) for each.
1. G45A G61C U81G
2. G61U A118G
3. G19U G69A U106C C114A G120C
4. C8A A18C C22G
5. C4U A74U U92G
6. U67C C85U
7. C88U C104U

1. -6.11
2. 0.1
3. -2.51
4. -4.25
5. -3.59
6. -4.67
7. 0.689

Okay, here is my list. What is polymerase ribozyme fitness (log ratio) for each of these?
1. A6C U7G C22G G58U A95G C104A G120C
2. C12U G51U C73A U92A G113U U116G
3. U7C C62U G120A G128A
4. C22U A91U U112G
5. A68U C97A G120C

1. -3.33
2. -7.04
3. 0.578
4. -6.06
5. -6.59

Give polymerase ribozyme fitness (log ratio) for each listed item.
1. C34U C70U
2. C8U A74U C94A

1. -5.65
2. -0.334

# per-item lookup of polymerase ribozyme fitness (log ratio); items listed below
1. C4U C11G
2. U109A U131G
3. C11U G52A U92G C102A G122U
4. C53G C72A U112G G113C
5. A5U G19A C40A A111G

1: 0.407; 2: -5.71; 3: -6.57; 4: -7.66; 5: -2.76

Give polymerase ribozyme fitness (log ratio) for each of the items listed below.
1. G44A A46G G52A C123A
2. U55A A111U
3. U9A C62G C79G

1: -1.71; 2: -2.8; 3: -4.02

For each entry beneath this line, provide reported polymerase ribozyme fitness (log ratio).
1. G71C C94A
2. C4G C8G C72U A121G

-4.08
1.81
